test method notes: chemical genetic growth profiling, strain panel (AID 1159580);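 note: tested at 20 µM; growth read once vehicle control cultures reached saturation at 30 °C; lower values mean less growth of the strain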
conditions used: S. cerevisiae deletion strains, growth OD, locus YER016W, strain bim1
Out of some 5,500 compounds screened, about 2,000 (36%) were called active. Roughly 18% stayed inconclusive and do not appear here. Cut-off read from the data, not from the text of the source: active = normalized growth mostly below about 0.91 (no sharp cut-off); inconclusive = no clear call, values can overlap the other calls; inactive = mostly above about 0.92. The list shows a part of the results.
Form entry, call: pick from y (active), n (inactive)

A selection of reference data follows.
N#C/C(=C\c1ccc(O)cc1)C(=O)O; n
CCOc1nc2cccc(C(=O)OC(C)OC(=O)OC3CCCCC3)c2n1Cc1ccc(-c2ccccc2-c2nn[nH]n2)cc1 (centres undefined); n
C[C@]12CCC3c4ccc(O)cc4CCC3C1CC[C@@H]2OC(=O)CCC1CCCC1 (some centres undefined); n
CC(=O)N[C@@H](CC(=O)O)C(=O)O; n
OC[C@@H](O)C(O[C@@H]1O[C@H](CO)[C@H](O)[C@H](O)[C@H]1O)[C@H](O)[C@@H](O)CO (some centres undefined); n

Answer briefly: the call reported for CC(C)=CCOc1c2occc2cc2ccc(=O)oc12 in this assay.
n

Answer briefly: the call reported for CC(=O)OC1CCC23C(=O)OC45CCC(C6=CC(=O)OC6)C4(C)CCC2C5CCC3(O)C1 (centres undefined) in this assay.
n

Answer briefly: the call reported for O=C(CCCN1CC=C(n2c(=O)[nH]c3ccccc32)CC1)c1ccc(F)cc1 in this assay.
n

Answer briefly: the call reported for CCS(=O)(=O)CCn1c([N+](=O)[O-])cnc1C in this assay.
n

Answer briefly: the call reported for N#Cc1ccc2c(c1)N(CCCN1CCC(O)CC1)c1ccccc1S2 in this assay.
n
